Values were extracted from PubChem BioAssay.

assay: basal S. cerevisiae growth modulation, no modifier, primary screen, OD600, strain BY4716, 24 h, basal condition (AID 1173); settings: OD600, 24 h, higher = more signal, called active from +8 up or from −8 down
ENDPOINT LABEL: z-score
When you answer, write just the number.

Problem: Answer with reported z-score of CC(C)=NOC(C)CN1CCCCc2nc(C)c(C)cc21 (configuration not stated)
Solution: 0.0416

Problem: Quick one: give measured z-score for "O=C(NN=C1C[C@@H](O)[C@@H](O)[C@@H]2[C@@H]3C(=O)N(c4ccc(F)cc4F)C(=O)[C@@H]3CC[C@H]12)OCc1ccccc1"
Solution: -0.814

Problem: Specify reported z-score for the compound shown: "C[C@@H]1CC[C@@H](C(=O)O)N[C@H]1c1cccc(N2CCOCC2)c1"
Solution: -1.62

Problem: Identify measured z-score associated with "CC(CCC(=O)OC[C@H]1O[C@H](C#Cc2ccccc2)C=C[C@@H]1Oc1ccc(C)cc1)=NOC[C@@H](C)[C@H](OCc1ccccc1)C(C)C"
Solution: 0.513

Problem: Find the measured z-score of "O=C1[C@H]2[C@H]3[C@H](O)[C@H](O)CC(=NOC[C@@H](O)COCc4ccco4)[C@@H]3CC[C@H]2C(=O)N1C1CCCCC1" and report it.
Solution: 0.446

New cases:
Problem: Provide one value: measured z-score of "CCOC(=O)NN=C1C[C@@H](O)[C@@H](O)[C@@H]2[C@@H]3C(=O)N(C[C@@H]4CCCO4)C(=O)[C@@H]3CC[C@H]12"
Solution: 0.197

Problem: Read the entry "CC(C)[C@@H](OCc1ccccc1)[C@H](C)C=NOC[C@@H](O)[C@H]1O[C@@H]2OC(C)(C)O[C@@H]2[C@H]1O" and write its reported z-score.
Solution: -0.848
